# credit: ChEMBL document CHEMBL1268933

Assay: Permeability across human Caco-2 cell membrane
Format: ADME, cell-based
Settings: read-out: permeability
Endpoint: Papp (×10⁻⁶ cm/s)
State just the number; it will be interpreted in ×10⁻⁶ cm/s.

// Papp lookup, key: CCOC(=O)N[C@@H]1CC[C@@H]2[C@@H](C1)C[C@H]1C(=O)O[C@H](C)[C@H]1[C@H]2/C=C/c1ccc(-c2ccccn2)cn1
28.3

###

Test: Equilibrium solubility of the compound after 24 hrs
Assay type: physicochemical
Endpoint: solubility thermodynamic at 24 h (µM)
Respond with the bare value in µM.

[[record]]
structure_string = "CCOC(=O)N[C@@H]1CC[C@@H]2[C@@H](C1)C[C@H]1C(=O)O[C@H](C)[C@H]1[C@H]2/C=C/c1ccc(-c2cccc(F)c2)cn1"
unit_tag = "µM"
measured = 2.8


Let us move to another entry and its solubility thermodynamic at 24 h.
Field request: solubility thermodynamic at 24 h | item: CCOC(=O)N[C@@H]1CC[C@@H]2[C@@H](C1)C[C@H]1C(=O)O[C@H](C)[C@H]1[C@H]2/C=C/c1ccc(-c2ccccn2)cn1
67

###

Assay: Cmax in rat
Type: ADME, organism-based
Details: in vivo
This section presents molecules with their documented Cmax values.
Entry rule: numbers only, all in ng/mL.

[[record]]
molecule = "CCOC(=O)N[C@@H]1CC[C@@H]2[C@@H](C1)C[C@H]1C(=O)O[C@H](C)[C@H]1[C@H]2/C=C/c1ccc(-c2cccc(F)c2)cn1 [VORAPAXAR]"
endpoint = "Cmax"
measured = 974

[[record]]
molecule = "CCOC(=O)N[C@@H]1CC[C@@H]2[C@@H](C1)C[C@H]1C(=O)O[C@H](C)[C@H]1[C@H]2/C=C/c1ccc(-c2cccc(OC)c2)cn1"
endpoint = "Cmax"
measured = 368

[[record]]
molecule = "CCOC(=O)N[C@@H]1CC[C@@H]2[C@@H](C1)C[C@H]1C(=O)O[C@H](C)[C@H]1[C@H]2/C=C/c1ccc(-c2ccccc2C#N)cn1"
endpoint = "Cmax"
measured = 1570


Which Cmax reading was recorded for the molecule CCOC(=O)N[C@@H]1CC[C@@H]2[C@@H](C1)C[C@H]1C(=O)O[C@H](C)[C@H]1[C@H]2/C=C/c1ccc(-c2ccccn2)cn1 ?
3070

###

Target: PXR (nuclear receptor subfamily 1 group I member 2) (Homo sapiens)
Sequence (O75469 whole entry): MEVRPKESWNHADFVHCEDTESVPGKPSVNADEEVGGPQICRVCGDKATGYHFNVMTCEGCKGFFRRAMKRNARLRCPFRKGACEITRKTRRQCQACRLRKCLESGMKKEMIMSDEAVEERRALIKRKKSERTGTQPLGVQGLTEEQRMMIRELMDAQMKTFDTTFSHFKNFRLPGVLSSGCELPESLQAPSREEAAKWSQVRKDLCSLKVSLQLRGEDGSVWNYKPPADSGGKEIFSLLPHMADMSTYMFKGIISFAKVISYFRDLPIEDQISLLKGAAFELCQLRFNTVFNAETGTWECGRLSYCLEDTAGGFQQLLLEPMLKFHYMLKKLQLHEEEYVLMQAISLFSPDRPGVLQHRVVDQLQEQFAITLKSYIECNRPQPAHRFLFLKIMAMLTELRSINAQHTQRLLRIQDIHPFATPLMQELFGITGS
Assay: Induction of human PXR at 10 uM
Endpoint: induction at 10 µM (%)
Number only, in %; omit the unit.

I'd like to know its induction at 10 µM. The compound in question is CCOC(=O)N[C@@H]1CC[C@@H]2[C@@H](C1)C[C@H]1C(=O)O[C@H](C)[C@H]1[C@H]2/C=C/c1ccc(-c2ccccn2)cn1
0.13

###

Target: Proteinase-activated receptor 1 (Homo sapiens)
Sequence (P25116 whole entry): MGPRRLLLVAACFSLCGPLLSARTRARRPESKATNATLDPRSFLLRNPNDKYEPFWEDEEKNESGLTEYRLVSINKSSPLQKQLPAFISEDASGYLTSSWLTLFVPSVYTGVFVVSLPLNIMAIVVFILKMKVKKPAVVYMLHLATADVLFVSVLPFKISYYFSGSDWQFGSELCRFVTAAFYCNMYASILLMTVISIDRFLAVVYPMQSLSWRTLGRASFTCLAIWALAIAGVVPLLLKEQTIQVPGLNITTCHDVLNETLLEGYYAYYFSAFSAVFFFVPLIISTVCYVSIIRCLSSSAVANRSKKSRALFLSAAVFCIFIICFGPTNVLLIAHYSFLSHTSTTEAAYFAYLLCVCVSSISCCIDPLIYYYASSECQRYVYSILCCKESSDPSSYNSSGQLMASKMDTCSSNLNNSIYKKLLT
Assay: Displacement of high affinity TRAP form human platelet PAR1
Endpoint: log10 Ki (log10 of the value in µM)
A difference of one corresponds to tenfold Ki; all values are log10 with Ki in µM.

[[record]]
structure_string = "CCOC(=O)N[C@@H]1CC[C@@H]2[C@@H](C1)C[C@H]1C(=O)O[C@H](C)[C@H]1[C@H]2/C=C/c1ccc(-c2ccoc2)cn1"
study_target = "Proteinase-activated receptor 1 (Homo sapiens)"
endpoint = "log10 Ki"
measured = -1.21

[[record]]
structure_string = "CCOC(=O)N[C@@H]1CC[C@@H]2[C@@H](C1)C[C@H]1C(=O)O[C@H](C)[C@H]1[C@H]2/C=C/c1ccc(-c2cccc(OC)c2)cn1"
study_target = "Proteinase-activated receptor 1 (Homo sapiens)"
endpoint = "log10 Ki"
measured = -1.92

[[record]]
structure_string = "CCOC(=O)N[C@@H]1CC[C@@H]2[C@@H](C1)C[C@H]1C(=O)O[C@H](C)[C@H]1[C@H]2/C=C/c1ccc(-c2ccccc2C#N)cn1"
study_target = "Proteinase-activated receptor 1 (Homo sapiens)"
endpoint = "log10 Ki"
measured = -1.82

[[record]]
structure_string = "CCOC(=O)N[C@@H]1CC[C@@H]2[C@@H](C1)C[C@H]1C(=O)O[C@H](C)[C@H]1[C@H]2/C=C/c1ccc(-c2ccc(C)cn2)cn1"
study_target = "Proteinase-activated receptor 1 (Homo sapiens)"
endpoint = "log10 Ki"
measured = -1.38

[[record]]
structure_string = "CCOC(=O)N[C@@H]1CC[C@@H]2[C@@H](C1)C[C@H]1C(=O)O[C@H](C)[C@H]1[C@H]2/C=C/c1ccc(-c2ccccn2)cn1"
study_target = "Proteinase-activated receptor 1 (Homo sapiens)"
endpoint = "log10 Ki"
measured = -1.72

[[record]]
structure_string = "CCOC(=O)N[C@@H]1CC[C@@H]2[C@@H](C1)C[C@H]1C(=O)O[C@H](C)[C@H]1[C@H]2/C=C/c1ccc(-c2cc(C)ccn2)cn1"
study_target = "Proteinase-activated receptor 1 (Homo sapiens)"
endpoint = "log10 Ki"
measured = -0.84

[[record]]
structure_string = "CCOC(=O)N[C@@H]1CC[C@@H]2[C@@H](C1)C[C@H]1C(=O)O[C@H](C)[C@H]1[C@H]2/C=C/c1ccc(-c2cccc(F)c2)cn1"
study_target = "Proteinase-activated receptor 1 (Homo sapiens)"
endpoint = "log10 Ki"
measured = -2.10

[[record]]
structure_string = "CCOC(=O)N[C@@H]1CC[C@@H]2[C@@H](C1)C[C@H]1C(=O)O[C@H](C)[C@H]1[C@H]2/C=C/c1ccc(-c2ccncc2)cn1"
study_target = "Proteinase-activated receptor 1 (Homo sapiens)"
endpoint = "log10 Ki"
measured = -0.60

[[record]]
structure_string = "CCOC(=O)N[C@@H]1CC[C@@H]2[C@@H](C1)C[C@H]1C(=O)O[C@H](C)[C@H]1[C@H]2/C=C/c1ccc(-c2nccs2)cn1"
study_target = "Proteinase-activated receptor 1 (Homo sapiens)"
endpoint = "log10 Ki"
measured = -1.12

[[record]]
structure_string = "CCOC(=O)N[C@@H]1CC[C@@H]2[C@@H](C1)C[C@H]1C(=O)O[C@H](C)[C@H]1[C@H]2/C=C/c1ccc(-c2cncnc2)cn1"
study_target = "Proteinase-activated receptor 1 (Homo sapiens)"
endpoint = "log10 Ki"
measured = -0.47


Shift focus to the following entry.
Return log10 Ki measured with Proteinase-activated receptor 1 (Homo sapiens) given this compound: CCOC(=O)N[C@@H]1CC[C@@H]2[C@@H](C1)C[C@H]1C(=O)O[C@H](C)[C@H]1[C@H]2/C=C/c1ccc(-c2cccnc2)cn1
-0.62
